Protocol details: melting temperature; melt of duplexes
Experimental context: sodium 0.0675 M; strand 1 µM
Measured parameter: Tm
Report field: quantity (unit follows the number).

CGACGTGCAGTATGTGCTG+CAGCACATACTGCACGTCG (((((((((((((((((((+))))))))))))))))))) | 62.7 °C
CGACGTGCGATATGTGCTG+CAGCACATGGAGCACGTCG ((((((((...((((((((+))))))))...)))))))) | 57.4 °C
CGACGTGCTGGATGTGCTG+CAGCACATCCTGCACGTCG ((((((((.((((((((((+)))))))))).)))))))) | 61.2 °C
CGACGTGCGCTATGTGCTG+CAGCACATAAGGCACGTCG ((((((((..(((((((((+)))))))))..)))))))) | 51.6 °C
CGACGTGCGCTATGTGCTG+CAGCACATGGGGCACGTCG ((((((((.(.((((((((+)))))))).).)))))))) | 56.7 °C

Problem: Supply reported Tm belonging to this substance: CGACGTGCAAAATGTGCTG+CAGCACATTTCGCACGTCG ((((((((.((((((((((+)))))))))).))))))))
Solution: 55.4 °C

Problem: Supply reported Tm belonging to this substance: CGACGTGCCCGATGTGCTG+CAGCACATGCAGCACGTCG ((((((((...((((((((+))))))))...))))))))
Solution: 49.6 °C

Problem: Supply reported Tm belonging to this substance: CGACGTGCAAAATGTGCTG+CAGCACATGCAGCACGTCG ((((((((...((((((((+))))))))...))))))))
Solution: 53.8 °C

###

Protocol details: melting temperature; melt of duplexes
Experimental context: sodium 0.0675 M; strand 1 µM
Measured parameter: Tm (°C)
Write it as a number; the unit °C goes unstated.

CGACGTGCACGATGTGCTG+CAGCACATGGTGCACGTCG ((((((((((.((((((((+)))))))).)))))))))) | 55.8
CGACGTGCGTGATGTGCTG+CAGCACATAATGCACGTCG ((((((((.(.((((((((+)))))))).).)))))))) | 52.9
CGACGTGCAGAATGTGCTG+CAGCACATGGCGCACGTCG ((((((((...((((((((+))))))))...)))))))) | 55.9

We next turn to a different substance, shown below.
Problem: Supply reported Tm belonging to this substance: CGACGTGCAAAATGTGCTG+CAGCACATTACGCACGTCG ((((((((..(((((((((+)))))))))..))))))))
Solution: 51.5

###

The following substances are shown together with reported Tm values.
Protocol details: melting temperature; melt of duplexes
Experimental context: sodium 0.0675 M; strand 1 µM
Write it as a number; the unit °C goes unstated.

# count of solved cases: 5
CGACGTGCTACATGTGCTG+CAGCACATCTCGCACGTCG ((((((((.(.((((((((+)))))))).).)))))))) | 47.2
CGACGTGCCGCATGTGCTG+CAGCACATGTCGCACGTCG ((((((((..(((((((((+)))))))))..)))))))) | 54.3
CGACGTGCAGAATGTGCTG+CAGCACATCTCGCACGTCG ((((((((...((((((((+))))))))...)))))))) | 51.6
CGACGTGCAGAATGTGCTG+CAGCACATTACGCACGTCG ((((((((..(((((((((+)))))))))..)))))))) | 52.7
CGACGTGCTGAATGTGCTG+CAGCACATATAGCACGTCG (((((((((..((((((((+))))))))..))))))))) | 53.7

Problem: Supply reported Tm belonging to this substance: CGACGTGCCACATGTGCTG+CAGCACATCCGGCACGTCG (((((((((..((((((((+))))))))..)))))))))
Solution: 52.6

Problem: Supply reported Tm belonging to this substance: CGACGTGCGCTATGTGCTG+CAGCACATTGCGCACGTCG ((((((((((.((((((((+)))))))).))))))))))
Solution: 61

Taken from the array DNA melting data of Ke et al..
